# TEST_PROTOCOL: cells
# TEST_SETTINGS: Homo sapiens, PC-3, 48 h
pIC50: −log10 of the molar value.
PROPERTY_LABEL: pIC50

Input Cc1cc2c(C(C)C)c(O)c(O)c(C=O)c2c(O)c1-c1c(C)cc2c(C(C)C)c(O)c(O)c(C=O)c2c1O [GOSSYPOL] . Output pIC50: 5.20

(a) O=C(NS(=O)(=O)c1ccc([N+](=O)[O-])cc1)[C@H](Cc1ccc(Br)cc1)N1C(=O)/C(=C/c2ccc(-c3ccc(Cl)cc3)cc2)SC1=S
(b) O=C(NS(=O)(=O)c1ccc([N+](=O)[O-])cc1)[C@H](Cc1ccc(Br)cc1)N1C(=O)/C(=C/c2ccc(-c3ccc([N+](=O)[O-])cc3)cc2)SC1=S
Lower value for measured pIC50? Options: a , b Your answer should be the label attached to the chosen record. b
